Entry source: patent US20120108492A1

Test system: anti-CR2 SCR1-2 monoclonal antibody 171
Assay: MBP-CR2 SCR1-2-171 mAb ELISA
Format: binding
Conditions: mutant MBP-CR2 SCR1-2 relative to wild-type; plate-bound 171 mAb
Excerpt: See Asokan et al. (2006) J Immunol 177:383-94; Guthridge et al. (2001) J Immunol 167:5758-66; Young et al. (2007) J Biol Chem 282:36614-36625. […] Hannan et al. (2005) J Mol Biol 346:845-58; and Young et al. (2007) J Biol Chem 282:36614-36625. After coating, the plates were blocked using 0.1% BSA in a PBS solution, pH 7.4 for one hour at room temperature. […]
What % 171 mAb Binding was measured for each of the following?
One number for each entry, in %.

Illustrative cases are given below, each with its answer.
MOLECULE	MEASURE_UNIT	EXPERIMENTAL_VALUE
K50A: single-site mutant of recombinant MBP-CR2 SCR1-2 (protein, left off: large carriers; small tags and cut ends) ISCGSPPPILNGRISYYSTPIAVGTVIRYSCSGTFRLIGEKSLLCITKDAVDGTWDKPAPKCEYFNKYSSCPEPIVPGGYKIRGSTPYRHGDSVTFACKTNFSMNGNKSVWCQANNMWGPTRLPTCVSVFPLE	%	94.4
K41A: single-site mutant of recombinant MBP-CR2 SCR1-2 (protein, left off: large carriers; small tags and cut ends) ISCGSPPPILNGRISYYSTPIAVGTVIRYSCSGTFRLIGEASLLCITKDKVDGTWDKPAPKCEYFNKYSSCPEPIVPGGYKIRGSTPYRHGDSVTFACKTNFSMNGNKSVWCQANNMWGPTRLPTCVSVFPLE	%	97.3

Now for the molecule whose % 171 mAb Binding we want.
INPUT: Consider the molecule L10A: single-site mutant of recombinant MBP-CR2 SCR1-2 (protein, left off: large carriers; small tags and cut ends) ISCGSPPPIANGRISYYSTPIAVGTVIRYSCSGTFRLIGEKSLLCITKDKVDGTWDKPAPKCEYFNKYSSCPEPIVPGGYKIRGSTPYRHGDSVTFACKTNFSMNGNKSVWCQANNMWGPTRLPTCVSVFPLE and give its measured % 171 mAb Binding.
OUTPUT: 94.7
